Where do these numbers come from? They come from the domain aggregation screens of Martell et al. (2025).

protocol: soluble fraction after stress (log2 fold change); higher = more stays soluble; pooled small domains, quantitative proteomics;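 note: 20 min heating vs room temperature control held 20 min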
recorded_conditions: stress: 75 degC
recorded_metric: soluble fraction (log2)
Lab note: write the figure by itself, no unit.

These recorded examples may help you get a feel for the data.
INSERT INTO assay_data (sequence_input, result) VALUES
  ('HMNILNFSENIIKLRHKKGITQEELADFVGVTKASVSKWETKQSLPDIMLLPRLAAYFDVTVDELLGYEP', -2.16),
  ('HMERPPHELLSDREYQTMVMIASGRTLTQIAEEMSLSPKTVSVYRARLLEKMKLKNNAELTHYALKHKLV', -1.89),
  ('HMKEKQLMTLDDDLYAFLLKHPGIIQKDIYNHFPYDIKGVIADTLYAWDKTGKIKRTKSGNSYIIYT', -0.228);

Now, please, on to the next sequence.
Q. Item `HMGVDMGPAKYVGQKALTATEMRPAGKIQIGQTVFDAVSVGPFIGARKAVKVIKYENAQLYVEPE` : provide soluble fraction (log2)
A. -0.415

---

protocol: soluble fraction after stress (log2 fold change); higher = more stays soluble; pooled small domains, quantitative proteomics
recorded_conditions: stress: 75 degC
recorded_metric: soluble fraction (log2)
Lab note: write the figure by itself, no unit.

INSERT INTO results (sequence_input, result) VALUES
  ('HMFPELDEEEQKITKLLQAQNDLPANIIAVKTALNIGTTQAKLFSLEMKGVVKPYAGGFYHLL', -2.73),
  ('HMGEPQAWNELIGNLLRQWEARQTGWTPARKREALDRVLGAADPAALYTRLQGLLKSWTQAMTDADA', -1.73);

Q. Item `HMKKLTNKQIIFFAEKLAHHSDFASKYSKVGESYEEFAIRLEKELNTPQKVEFYSSYLEKVGFK` : provide soluble fraction (log2)
A. -2.54

Q. Item `HMLQLDATDRALIVATQGGLPLVPRPYQVVGEQLGISGEEVVARLRALLDAGVIRRIGAVPN` : provide soluble fraction (log2)
A. -0.569

Q. Item `HMQDKLLRKKEVLEMVSITNSTMYRMIGSGQFPRPIRLDNANINSGVRWKLSEINTFIEQRF` : provide soluble fraction (log2)
A. -0.513

---

protocol: soluble fraction after stress (log2 fold change); higher = more stays soluble; pooled small domains, quantitative proteomics
recorded_conditions: stress: 75 degC
recorded_metric: soluble fraction (log2)
Lab note: write the figure by itself, no unit.

INSERT INTO measurements (sequence_input, recorded_metric, result) VALUES
  ('HMRSPIWKSITATLTAEIAGGQYRAGDKLPTEAELSQRFGVNRHTLRRALAEMAGAGLVVARRGAGVFVQG', 'soluble fraction (log2)', -2.5),
  ('HMNTEKRVFAGVENTRLDHFLVEQFPEFSRTFIQQMIKSANVIVNGNIEKASYKLREGDTIMTRPM', 'soluble fraction (log2)', -0.489),
  ('HMQTSETVYTTDKVNVRAGADTSSDKLGSVEKGTSLTRTGTDGDWSIIDYNGTTGYIKSEYLSATAPE', 'soluble fraction (log2)', 0.566);

Q. Item `HMATQTGTVKWFNEGKGFGFIAPDDGSKDLFAHFSEIKTTGFKTLAEAQRVEFEVTEGRKGLQASNIK` : provide soluble fraction (log2)
A. 0.442

Q. Item `HMDDLSPEENKVIGAQVREELARRRLSRQHLADKAKISLSTLEKALTGTRPFTLASVVRIEEALQLQLRK` : provide soluble fraction (log2)
A. -1.35

Q. Item `HMTSAPHHIAAVLRDAIYRGVLEEGGPLHQARIAQSLGVSPIPLREALRLLETEGLVEFRGYRGAFVT` : provide soluble fraction (log2)
A. -0.557

Q. Item `HMLQLKEPLKKVYERLTPVPKTAETILAELWEKGEYLDIAALHRALMELELSGYVRQSSPGYFGTSA` : provide soluble fraction (log2)
A. -0.553

Q. Item `HMDLPGIVTETDRQRADLAARIGAAKVEAVLAGGARSVEADEDFDADTRRELHQFLTRMARRAFLEER` : provide soluble fraction (log2)
A. 0.1

Q. Item `HMTQTDINQIETLVHEGNKLAAVKLLMDTAHIGLKEAKDIIDNFFLGKQTDLQAAVAQVQTR` : provide soluble fraction (log2)
A. 0.902

Q. Item `HMDPYLSGLLQKLAETDKKISFTRLRSEDLDGESREAIYEFIEKYSGRFGVRWLLNEFGLSPSVYYNYLHS` : provide soluble fraction (log2)
A. -0.727

Q. Item `HMEFTFTLPRGYIDDTGMIHREGTMRLANAADEILPLKDPRVQQNPGYLTIILLARVITKLGSL` : provide soluble fraction (log2)
A. 0.33

Q. Item `HMETVVTEVKTTDVVNIRTSDSETADKLSKAAIGDTFPLLEERGNGWSKVAYNGEEAFIKSDYLEPSKTE` : provide soluble fraction (log2)
A. 0.0124

Q. Item `HMRDVVVVPDLSGLTQMEALSKLDAESLNIGEINYGVSEMPEGVIFKQDPVYGTELMKGDTVDIFISGR` : provide soluble fraction (log2)
A. -0.423

Q. Item `HMTKYEKKIFEIVNASRDHLTAEQVLAALREEYPAVSQATVYNNLKKLTSDGLLRKLTLADSPDRYD` : provide soluble fraction (log2)
A. -0.202

Q. Item `HMPLLELPDDFYPAWKPKTIYVQGQRIMLDGVAFEAKWWTQGDNPASGQADPGSSPWRTLTQEEIAKLLE` : provide soluble fraction (log2)
A. -1.52

Q. Item `HMSSEPASLVGKTGVAASVLRPSGRVEVNGEYYDAVSINGFIEKGESVFVHKYENAQLYVSKNSE` : provide soluble fraction (log2)
A. 0.162

Q. Item `HMKDITMPNVYGLTLEMAEQTLKQSELSIFKAMKINSDTVEEGKVIYTDPKANSIVSGDQEITIYVSDGP` : provide soluble fraction (log2)
A. 0.411

---

protocol: soluble fraction after stress (log2 fold change); higher = more stays soluble; pooled small domains, quantitative proteomics
recorded_conditions: stress: 75 degC
List of soluble fraction (log2) values.
Lab note: write the figure by itself, no unit.

These recorded examples may help you get a feel for the data.
INSERT INTO assay_data (sequence_input, result) VALUES
  ('HMTEEEEFEKGFEILVNLSHFNRFSVYKEDEYVIVRIADYDFNEYFKVKKSDVGRIAEFLNENIT', -2.61),
  ('HMNKPLFVYPNPVHQGKINLSKATNFMVVDLLGQTVNKTNYGKDFSIDNLPNGVYFIKTTEGEIIKFMK', -0.701),
  ('HMVSGSPTVDILMQRGLEYQQQENLEAARDAFDRAINLKPDYAEAWNRRAVLFFNEGKYDEAIADLETAIT', 0.136),
  ('HMDTNVPVPNVNGMTLNQAKAALEAAGFHVAVNWLGEKSDNNSVISYEPNGSAAKGTTITITVIAQPEQDG', 0.0988),
  ('HMSAITLDQARAIALDHAGISEGDATFVKEQTGTSSYEIEFYSGSNEYDYEIDKATGAILNVDR', 0.22);

Q. Item `HMHGSSSTVPPVKGLSFEQARLTLAENDLTVEISDSIYDRNARPGTVVESWPRAGSVVKQGRQVYVTVTAF` : provide soluble fraction (log2)
A. -0.894

Q. Item `HMKTITVEDEQAGKRLDKALAELFPHYSRSALEKLIKEGQVLVNKSFVKSKYSLKLGDEISLQFEQL` : provide soluble fraction (log2)
A. -0.325

---

protocol: soluble fraction after stress (log2 fold change); higher = more stays soluble; pooled small domains, quantitative proteomics
recorded_conditions: stress: 75 degC
recorded_metric: soluble fraction (log2)
Lab note: write the figure by itself, no unit.

These recorded examples may help you get a feel for the data.
INSERT INTO assay_data (sequence_input, result) VALUES
  ('HMDYNLTKNQKIVFNLLQNSGEPLKAYTILESLKREGLKSPLQVYRALDKLVELGIIHKIESQNSFI', -0.334),
  ('HMVETDQESSLIQAIYKYFEITGDNTFFDEKVGEKTVADRMEWAMDYLIQNRFSEEYGLIWGA', -0.285),
  ('HMWTKKELWNAIAKLPKKQRTVVMMRIAQNLPYKDISEITGMSIGSAKVNYHHAVNSLKQWLS', -0.746),
  ('HMTTVSINTTGIITASTIRASSALYPPLYTTVQRDAGTFSAGAIIFNSTTSKLEFYDGTTWQSLPG', -0.339);

Q. Item `HMEHIEVDTSHIAVGSKVKHKAFGLGEITDKGNTYVFVKFDGQAIPKKFQFPGAFTQGFLTK` : provide soluble fraction (log2)
A. 0.236

Q. Item `HMTIERVKIKETPTGWLRVRETPDNNGSEIGRANVGEIYELLGSKGEWYHIVYKGKQGFISTKYAEKVL` : provide soluble fraction (log2)
A. -0.999

Q. Item `HMGRGAAKGPLKELGLDPVTGRPLVVKDGKFGMYVTDGETNAGLRRGDLVEQLTLDRGMELLAERRARADQ` : provide soluble fraction (log2)
A. 0.201

Q. Item `HMPMPQDEVSYALGLSIGQNFKASGIKAITSEDFIAGLQDALAEREPQMTTERAREVINQLFMRLQQEESE` : provide soluble fraction (log2)
A. 0.323
